Tested on: VA-ES-BJ tumor spheroid viability
test-description: Anticancer human tumor VA-ES-BJ cell line growth inhibition;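 note: spheroids exposed to compounds for seven days; percent of DMSO vehicle control viability so 100% = untreated growth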
cond: second compound 0.0003 µM; first compound 0.3 µM; stronger effect = lower value; spheroids with HUVEC and MSC
property: viability, T/C (%)
All answers are understood in %, so give the number only.

Enquiry: Annotate the molecule O=C(c1cc(Cc2n[nH]c(=O)c3ccccc23)ccc1F)N1CCN(C(=O)C2CC2)CC1 + COc1cc2c(cc1O)CCNC21CSC2c3c(OC(C)=O)c(C)c4c(c3C(COC1=O)N1C(O)C3Cc5cc(C)c(OC)c(O)c5C(C21)N3C)OCO4 with its measured viability, T/C.
Return: 40.7

Enquiry: Recall and state the measured viability, T/C for CNCc1ccc(-c2cc(-c3nc(-c4ccc(S(=O)(=O)C(C)C)cc4)cnc3N)on2)cc1 + COc1cc2c(cc1O)CCNC21CSC2c3c(OC(C)=O)c(C)c4c(c3C(COC1=O)N1C(O)C3Cc5cc(C)c(OC)c(O)c5C(C21)N3C)OCO4 .
Return: 23.9

Enquiry: For the molecule Cn1ncnc1[C@H]1c2n[nH]c(=O)c3cc(F)cc(c23)N[C@@H]1c1ccc(F)cc1 + COc1cc2c(cc1O)CCNC21CSC2c3c(OC(C)=O)c(C)c4c(c3C(COC1=O)N1C(O)C3Cc5cc(C)c(OC)c(O)c5C(C21)N3C)OCO4 , give its reported viability, T/C.
Return: 19.7

Enquiry: Identify measured viability, T/C corresponding to Cc1sc2c(c1C)C(c1ccc(Cl)cc1)=NC(CC(=O)Nc1ccc(O)cc1)c1nnc(C)n1-2 (centres undefined) + COc1cc2c(cc1O)CCNC21CSC2c3c(OC(C)=O)c(C)c4c(c3C(COC1=O)N1C(O)C3Cc5cc(C)c(OC)c(O)c5C(C21)N3C)OCO4
Return: 13.7

====

System: VA-ES-BJ tumor spheroid viability
test-description: Anticancer human tumor VA-ES-BJ cell line growth inhibition;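 note: spheroids exposed to compounds for seven days; percent of DMSO vehicle control viability so 100% = untreated growth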
cond: second compound 0.000949 µM; first compound 10 µM; stronger effect = lower value; spheroids with HUVEC and MSC
property: viability, T/C (%)
Enter your answer as a number in %; do not include the unit.

# compound, viability, T/C [%]
data = [
    ("COc1cc(C)[nH]c(=O)c1CN1CCc2c(Cl)cc(C(OC)C3COC3)c(Cl)c2C1=O (configuration not stated) + COc1cc2c(cc1O)CCNC21CSC2c3c(OC(C)=O)c(C)c4c(c3C(COC1=O)N1C(O)C3Cc5cc(C)c(OC)c(O)c5C(C21)N3C)OCO4", 1.84),
]

--- query ---
Enquiry: For the compound [2H]c1nc(C)nc([2H])c1-c1cc(NC[C@@H](C)c2cccc3c(C(=O)NC)ccnc23)ncn1 + COc1cc2c(cc1O)CCNC21CSC2c3c(OC(C)=O)c(C)c4c(c3C(COC1=O)N1C(O)C3Cc5cc(C)c(OC)c(O)c5C(C21)N3C)OCO4 , give its measured viability, T/C value.
Return: 1.53

====

System: VA-ES-BJ tumor spheroid viability
test-description: Anticancer human tumor VA-ES-BJ cell line growth inhibition; active = viability on the fitted dose curve at most 10% of control; inactive = the rest;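 note: spheroids exposed to compounds for seven days; percent of DMSO vehicle control viability so 100% = untreated growth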
cond: second compound 30 pM; first compound 3 µM; spheroids with HUVEC and MSC
// one of y = active, n = inactive, no free text

# compound, label
measured = [
    ("Cn1ncnc1[C@H]1c2n[nH]c(=O)c3cc(F)cc(c23)N[C@@H]1c1ccc(F)cc1 + COc1cc2c(cc1O)CCNC21CSC2c3c(OC(C)=O)c(C)c4c(c3C(COC1=O)N1C(O)C3Cc5cc(C)c(OC)c(O)c5C(C21)N3C)OCO4", "y"),
    ("CNCc1ccc(-c2cc(-c3nc(-c4ccc(S(=O)(=O)C(C)C)cc4)cnc3N)on2)cc1 + COc1cc2c(cc1O)CCNC21CSC2c3c(OC(C)=O)c(C)c4c(c3C(COC1=O)N1C(O)C3Cc5cc(C)c(OC)c(O)c5C(C21)N3C)OCO4", "y"),
    ("O=C(c1cc(Cc2n[nH]c(=O)c3ccccc23)ccc1F)N1CCN(C(=O)C2CC2)CC1 + COc1cc2c(cc1O)CCNC21CSC2c3c(OC(C)=O)c(C)c4c(c3C(COC1=O)N1C(O)C3Cc5cc(C)c(OC)c(O)c5C(C21)N3C)OCO4", "n"),
]

Now consider the entry below.
Enquiry: Test call, this compound: Cc1sc2c(c1C)C(c1ccc(Cl)cc1)=NC(CC(=O)Nc1ccc(O)cc1)c1nnc(C)n1-2 (centres undefined) + COc1cc2c(cc1O)CCNC21CSC2c3c(OC(C)=O)c(C)c4c(c3C(COC1=O)N1C(O)C3Cc5cc(C)c(OC)c(O)c5C(C21)N3C)OCO4
Return: n
